molecular target: UniProt P14616; experiment: KINOMEscan competition binding; conditions: compound 10.0 µM
Sequence (P14616 whole entry, looked up): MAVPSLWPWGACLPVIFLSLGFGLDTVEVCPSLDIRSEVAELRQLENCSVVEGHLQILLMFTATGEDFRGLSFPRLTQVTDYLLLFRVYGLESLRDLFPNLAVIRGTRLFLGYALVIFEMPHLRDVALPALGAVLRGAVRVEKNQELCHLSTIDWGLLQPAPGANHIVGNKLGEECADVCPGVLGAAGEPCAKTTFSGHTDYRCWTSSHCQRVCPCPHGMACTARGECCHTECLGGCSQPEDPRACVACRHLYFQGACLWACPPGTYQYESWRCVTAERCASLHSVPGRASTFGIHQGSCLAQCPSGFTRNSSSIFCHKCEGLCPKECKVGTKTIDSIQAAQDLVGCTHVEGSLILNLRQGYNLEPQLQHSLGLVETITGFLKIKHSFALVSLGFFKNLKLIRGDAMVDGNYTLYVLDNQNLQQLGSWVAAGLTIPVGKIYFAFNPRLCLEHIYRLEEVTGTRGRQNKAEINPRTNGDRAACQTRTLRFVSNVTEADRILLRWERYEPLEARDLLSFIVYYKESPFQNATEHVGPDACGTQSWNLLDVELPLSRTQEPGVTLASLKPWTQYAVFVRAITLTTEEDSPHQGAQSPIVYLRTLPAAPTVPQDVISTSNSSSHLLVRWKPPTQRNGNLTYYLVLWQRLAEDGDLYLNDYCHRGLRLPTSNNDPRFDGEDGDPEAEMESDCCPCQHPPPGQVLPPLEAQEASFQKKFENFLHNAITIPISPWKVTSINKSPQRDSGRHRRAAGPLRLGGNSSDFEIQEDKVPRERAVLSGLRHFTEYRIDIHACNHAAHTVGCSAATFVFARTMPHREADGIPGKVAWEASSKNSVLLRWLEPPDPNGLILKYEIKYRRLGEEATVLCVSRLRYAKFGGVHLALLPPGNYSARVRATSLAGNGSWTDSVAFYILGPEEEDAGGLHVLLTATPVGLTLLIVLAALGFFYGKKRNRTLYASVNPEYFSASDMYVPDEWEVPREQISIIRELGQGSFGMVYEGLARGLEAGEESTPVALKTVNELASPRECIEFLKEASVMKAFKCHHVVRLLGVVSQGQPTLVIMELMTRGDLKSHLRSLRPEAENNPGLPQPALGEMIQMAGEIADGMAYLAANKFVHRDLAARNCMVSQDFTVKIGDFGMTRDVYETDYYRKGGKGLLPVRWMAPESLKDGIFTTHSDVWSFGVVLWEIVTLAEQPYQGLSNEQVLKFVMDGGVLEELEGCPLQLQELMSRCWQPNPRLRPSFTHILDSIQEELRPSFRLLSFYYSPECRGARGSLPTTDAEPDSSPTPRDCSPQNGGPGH
Give kinase still bound, per cent of control for every item shown.
# output: bare number, implied unit %

State kinase still bound, per cent of control (UniProt P14616) of "CCN1CCN(Cc2ccc(NC(=O)c3ccc(C)c(Oc4ccnc5[nH]ccc45)c3)cc2C(F)(F)F)CC1" .
23

State kinase still bound, per cent of control (UniProt P14616) of "COc1cc(N2CCC(N3CCN(C)CC3)CC2)ccc1Nc1ncc(Cl)c(Nc2ccccc2S(=O)(=O)C(C)C)n1" .
0.35

State kinase still bound, per cent of control (UniProt P14616) of "CCOc1cc(N2CCC(N3CCCCC3)CC2)ccc1Nc1nc(Nc2ccccc2S(=O)(=O)C(C)C)c2cn[nH]c2n1" .
0.4

State kinase still bound, per cent of control (UniProt P14616) of "CCN1CCN(Cc2ccc(NC(=O)c3ccc(C)c(/C=C/c4cnc(Nc5cc(N6CCNCC6)nc(C)n5)cn4)c3)cc2C(F)(F)F)CC1" .
44

* * *

molecular target: ANKK1 (human); experiment: KINOMEscan competition binding; conditions: compound 10.0 µM
Give kinase still bound, per cent of control for every item shown.
# output: bare number, implied unit %

Provide one value: measured kinase still bound, per cent of control of "CCOc1cc(N2CCC(N3CCCCC3)CC2)ccc1Nc1nc(Nc2ccccc2S(=O)(=O)C(C)C)c2cn[nH]c2n1"
100

Provide one value: measured kinase still bound, per cent of control of "CCN1CCN(Cc2ccc(NC(=O)c3ccc(C)c(Oc4ccnc5[nH]ccc45)c3)cc2C(F)(F)F)CC1"
23

Provide one value: measured kinase still bound, per cent of control of "COc1cc(N2CCC(N3CCN(C)CC3)CC2)ccc1Nc1ncc(Cl)c(Nc2ccccc2S(=O)(=O)C(C)C)n1"
40

Provide one value: measured kinase still bound, per cent of control of "CCN1CCN(Cc2ccc(NC(=O)c3ccc(C)c(/C=C/c4cnc(Nc5cc(N6CCNCC6)nc(C)n5)cn4)c3)cc2C(F)(F)F)CC1"
9.6

* * *

biological target: MUSK (human); test: KINOMEscan competition binding; settings: compound 10.0 µM
Recorded endpoint: kinase still bound, per cent of control (%)
# output: bare number, implied unit %

Provide one value: measured kinase still bound, per cent of control of "CCOc1cc(N2CCC(N3CCCCC3)CC2)ccc1Nc1nc(Nc2ccccc2S(=O)(=O)C(C)C)c2cn[nH]c2n1"
100

Provide one value: measured kinase still bound, per cent of control of "CCN1CCN(Cc2ccc(NC(=O)c3ccc(C)c(Oc4ccnc5[nH]ccc45)c3)cc2C(F)(F)F)CC1"
0.2

Provide one value: measured kinase still bound, per cent of control of "CCN1CCN(Cc2ccc(NC(=O)c3ccc(C)c(/C=C/c4cnc(Nc5cc(N6CCNCC6)nc(C)n5)cn4)c3)cc2C(F)(F)F)CC1"
5.2

Provide one value: measured kinase still bound, per cent of control of "COc1cc(N2CCC(N3CCN(C)CC3)CC2)ccc1Nc1ncc(Cl)c(Nc2ccccc2S(=O)(=O)C(C)C)n1"
0.35

* * *

target: MAPK14 (human); test: KINOMEscan competition binding; details: compound 10.0 µM
Recorded endpoint: kinase still bound, per cent of control
Write the figure, then the unit, nothing else.

Provide one value: measured kinase still bound, per cent of control of "CCN1CCN(Cc2ccc(NC(=O)c3ccc(C)c(Oc4ccnc5[nH]ccc45)c3)cc2C(F)(F)F)CC1"
0%

Provide one value: measured kinase still bound, per cent of control of "CCN1CCN(Cc2ccc(NC(=O)c3ccc(C)c(/C=C/c4cnc(Nc5cc(N6CCNCC6)nc(C)n5)cn4)c3)cc2C(F)(F)F)CC1"
4.6%

Provide one value: measured kinase still bound, per cent of control of "CCOc1cc(N2CCC(N3CCCCC3)CC2)ccc1Nc1nc(Nc2ccccc2S(=O)(=O)C(C)C)c2cn[nH]c2n1"
98%

Provide one value: measured kinase still bound, per cent of control of "COc1cc(N2CCC(N3CCN(C)CC3)CC2)ccc1Nc1ncc(Cl)c(Nc2ccccc2S(=O)(=O)C(C)C)n1"
40%
